# maps each entry to its half-life
assay: Half life was determined; assay type: ADME, organism-based, Canis lupus familiaris; conditions: dog, in vivo
OBSERVABLE: half-life (h)

- CHEM_SMILES: "O=S(=O)(Nc1ccc(CCNC[C@H](O)c2cccnc2)cc1)c1ccc(-c2noc(Cc3ccc(OC(F)(F)F)cc3)n2)cc1"
  NUMERIC_VALUE: 3.8
- CHEM_SMILES: "O=S(=O)(Nc1ccc(CCNC[C@H](O)c2cccnc2)cc1)c1ccc(-c2noc(Cc3ccc(F)c(F)c3)n2)cc1"
  NUMERIC_VALUE: 3.4

###

target: UniProt:P13945; test: Stimulation of cAMP levels in CHO cells expressing the recombinant human beta-3 adrenergic receptor
Sequence (P13945 whole entry): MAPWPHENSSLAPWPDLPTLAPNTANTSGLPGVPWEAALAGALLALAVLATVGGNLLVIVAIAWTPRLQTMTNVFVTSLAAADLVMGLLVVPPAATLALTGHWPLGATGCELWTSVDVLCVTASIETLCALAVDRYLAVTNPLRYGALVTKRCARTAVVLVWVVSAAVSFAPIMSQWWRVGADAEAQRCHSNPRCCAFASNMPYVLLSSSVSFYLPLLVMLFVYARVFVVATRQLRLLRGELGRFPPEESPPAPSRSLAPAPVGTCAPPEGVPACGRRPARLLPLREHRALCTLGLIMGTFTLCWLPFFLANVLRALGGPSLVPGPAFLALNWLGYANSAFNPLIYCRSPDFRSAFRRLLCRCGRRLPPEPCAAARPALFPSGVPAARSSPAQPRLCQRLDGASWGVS
pEC50: −log10 of the molar value.
Give rule met when the value for pEC50 is at least 8. Give rule not met when it is less.

- CHEM_SMILES: "O=S(=O)(Nc1ccc(CCNC[C@H](O)c2cccnc2)cc1)c1ccc(-c2noc(Cc3ccc(-c4ccccn4)cc3)n2)cc1"
  CLASS_NAME: "rule met"
- CHEM_SMILES: "O=S(=O)(Nc1ccc(CCNC[C@H](O)c2cccnc2)cc1)c1ccc(-c2noc(Cc3cc(F)c(F)c(F)c3)n2)cc1"
  CLASS_NAME: "rule met"
- CHEM_SMILES: "O=S(=O)(Nc1ccc(CCNC[C@H](O)c2cccnc2)cc1)c1ccc(-c2noc(COc3ccc(C4N=NN=N4)cc3)n2)cc1"
  CLASS_NAME: "rule not met"
- CHEM_SMILES: "CS(=O)(=O)Nc1ccc(Cc2nc(-c3ccc(S(=O)(=O)Nc4ccc(CCNC[C@H](O)c5cccnc5)cc4)cc3)no2)cc1"
  CLASS_NAME: "rule not met"
- CHEM_SMILES: "CC(=O)Nc1ccc(OCc2nc(-c3ccc(S(=O)(=O)Nc4ccc(CCNC[C@H](O)c5cccnc5)cc4)cc3)no2)cc1"
  CLASS_NAME: "rule not met"
